The reported measurements were obtained from the supplement of paper PMC7877785.

TEST SUMMARY: self-splicing fitness, log relative to wild type (ln ratio); higher = more splicing; Tetrahymena group I intron in knt gene, E. coli kanamycin selection, DiMSum; sequences stand for … in CUCUCU…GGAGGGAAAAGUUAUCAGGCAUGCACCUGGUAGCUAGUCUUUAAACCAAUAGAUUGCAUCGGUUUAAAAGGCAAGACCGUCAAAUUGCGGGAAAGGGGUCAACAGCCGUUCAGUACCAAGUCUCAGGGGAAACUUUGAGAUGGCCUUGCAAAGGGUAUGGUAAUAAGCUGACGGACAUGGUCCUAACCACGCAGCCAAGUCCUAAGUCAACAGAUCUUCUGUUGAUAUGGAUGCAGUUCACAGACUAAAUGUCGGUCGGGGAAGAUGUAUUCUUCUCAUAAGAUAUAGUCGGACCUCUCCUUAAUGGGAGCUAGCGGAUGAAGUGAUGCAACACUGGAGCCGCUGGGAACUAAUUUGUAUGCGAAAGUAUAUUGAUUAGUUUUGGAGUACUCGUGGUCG;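 also: selection with 25 µg/mL kanamycin versus none on LB agar overnight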
REPORTED CONDITIONS: 30 °C
Recorded self-splicing fitness (ln) split into classes lower band (below -3), central band (-3 to below -1), upper band (-1 or more)

For orientation, consider the following solved cases.
>>> category_label("AGGCAGCAAUAUUACGAGUG")
"lower band"
>>> category_label("CGCAAGCAAUAUUACGUUAG")
"central band"
>>> category_label("UAGCAGCAAUAUUACGCUUU")
"central band"
>>> category_label("UGCGAGCAAUAUUACGUAAA")
"central band"
>>> category_label("CGCUAGCAAUAUUACGUGUG")
"lower band"

Qu. For this sequence, which bin applies? CUCGAGCAAUAUUACGCUAC
Ans. upper band

Qu. What do you have for UAAUAGCAAUAUUACGUCAG ?
Ans. central band
